- Tested system: T1, interleukin-2 alpha receptor (SYMANSIS, #4102H) to which a human immunoglobulin Fc region was linked (UniProt P01589 22-213, limits assumed)
- T1 construct: Bought receptor-Fc, captured on anti-human immunoglobulin antibody; also called IL-2Rα; CD25; not shown: human immunoglobulin Fc region
- T1 sequence (looked up): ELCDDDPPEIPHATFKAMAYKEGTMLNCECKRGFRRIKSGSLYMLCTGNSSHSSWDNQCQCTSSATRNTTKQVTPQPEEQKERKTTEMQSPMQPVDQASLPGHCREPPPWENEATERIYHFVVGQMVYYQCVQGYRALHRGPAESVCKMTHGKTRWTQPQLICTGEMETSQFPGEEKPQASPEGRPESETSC
- Protocol: SPR (Biacore T200); receptor-Fc captured on anti-human Ig CM5 chip, analog flowed; relative to analog 1 = 100%
Relative binding affinity (%) reference

Binder	Relative binding affinity (%)
interleukin-2 analog 92 (ligand) PTSSSTKKTQLQLEHLLLDLQMILNGINNYKNPKLTRMLTFKFYMPKKATELKHLQCLEEELKPLEEVLNLAQSKNFHFEPRDVVSNINTFVLELKGSETTFMCEYADETATIVEFLNRWITFSQSIISTLT	97.3
interleukin-2 analog 102 (ligand) PTSSSTKKTQLQLEHLLLDLQMILNGINNYKNPKLTRMLTFKFYMPKKATELKHLQCLEEELKPLEEVLNLAQSKNFHFEPRDVVSNINVIVLELKGSETTFMCEYADETATIVEFLNRWITFSQSIISTLT	151
interleukin-2 analog 88 (ligand) PTSSSTKKTQLQLEHLLLDLQMILNGINNYKNPKLTRMLTFKFYMPKKATELKHLQCLEDELKPLEEVLNLAQSKNFHFEPRDVVSNINVFVLELKGSETTFMCEYADETATIVEFLNRWITFSQSIISTLT	102
interleukin-2 analog 41 (ligand) PTSSSTKKTQLQLEHLLLDLQMILNGINNYKNPKLTRMLTFKFYMPKKATELKHLQCLEEELKPLEEVLNLAQSKNFHFDPRDVVSNINVFVLELKGSETTFMCEYADETATIVEFLNRWITFSQSIISTLT	121
interleukin-2 analog 99 (ligand) PTSSSTKKTQLQLEHLLLDLQMILNGINNYKNPKLTAMLTFKFYMPKKATELKHLQCLEEELKPLEEVLNLAQSKNFHFEPRDLVSNINVFVLELKGSETTFMCEYADETATIVEFLNRWITFSQSIISTLT	19.9
interleukin-2 analog 93 (ligand) PTSSSTKKTQLQLEHLLLDLQMILNGINNYKNPKLTRMLTFKFYMPKKATELKHLQCLEEELKPLEEVLNLAQSKNFHFEPREVVSNINTFVLELKGSETTFMCEYADETATIVEFLNRWITFSQSIISTLT	92.8
interleukin-2 analog 91 (ligand) PTSSSTKKTQLQLEHLLLDLQMILNGINNYKNPKLTRMLTFKFYMPKKATELKHLQCLEQELKPLEEVLNLAQSKNFHFEPRDVVSNINVFVLELKGSETTFMCEYADETATIVEFLNRWITFSQSIISTLT	7.9
